Biological target: BaF3 cells expressing the target EGFR mutations (Homo sapiens, UniProt P00533, T790M/L858R, cells depend on it)
Construct: IC50, BAF3 EGFR L858R-T790M PURO POOL; other: BAF3 EGFR L858R-T790M PURO POOL cells, MTT; IC50, BAF3 EGFR L858R-T790M PURO POOL; other: BAF3 EGFR L858R-T790M PURO POOL cells; MTT
Sequence (P00533 whole entry T790M/L858R): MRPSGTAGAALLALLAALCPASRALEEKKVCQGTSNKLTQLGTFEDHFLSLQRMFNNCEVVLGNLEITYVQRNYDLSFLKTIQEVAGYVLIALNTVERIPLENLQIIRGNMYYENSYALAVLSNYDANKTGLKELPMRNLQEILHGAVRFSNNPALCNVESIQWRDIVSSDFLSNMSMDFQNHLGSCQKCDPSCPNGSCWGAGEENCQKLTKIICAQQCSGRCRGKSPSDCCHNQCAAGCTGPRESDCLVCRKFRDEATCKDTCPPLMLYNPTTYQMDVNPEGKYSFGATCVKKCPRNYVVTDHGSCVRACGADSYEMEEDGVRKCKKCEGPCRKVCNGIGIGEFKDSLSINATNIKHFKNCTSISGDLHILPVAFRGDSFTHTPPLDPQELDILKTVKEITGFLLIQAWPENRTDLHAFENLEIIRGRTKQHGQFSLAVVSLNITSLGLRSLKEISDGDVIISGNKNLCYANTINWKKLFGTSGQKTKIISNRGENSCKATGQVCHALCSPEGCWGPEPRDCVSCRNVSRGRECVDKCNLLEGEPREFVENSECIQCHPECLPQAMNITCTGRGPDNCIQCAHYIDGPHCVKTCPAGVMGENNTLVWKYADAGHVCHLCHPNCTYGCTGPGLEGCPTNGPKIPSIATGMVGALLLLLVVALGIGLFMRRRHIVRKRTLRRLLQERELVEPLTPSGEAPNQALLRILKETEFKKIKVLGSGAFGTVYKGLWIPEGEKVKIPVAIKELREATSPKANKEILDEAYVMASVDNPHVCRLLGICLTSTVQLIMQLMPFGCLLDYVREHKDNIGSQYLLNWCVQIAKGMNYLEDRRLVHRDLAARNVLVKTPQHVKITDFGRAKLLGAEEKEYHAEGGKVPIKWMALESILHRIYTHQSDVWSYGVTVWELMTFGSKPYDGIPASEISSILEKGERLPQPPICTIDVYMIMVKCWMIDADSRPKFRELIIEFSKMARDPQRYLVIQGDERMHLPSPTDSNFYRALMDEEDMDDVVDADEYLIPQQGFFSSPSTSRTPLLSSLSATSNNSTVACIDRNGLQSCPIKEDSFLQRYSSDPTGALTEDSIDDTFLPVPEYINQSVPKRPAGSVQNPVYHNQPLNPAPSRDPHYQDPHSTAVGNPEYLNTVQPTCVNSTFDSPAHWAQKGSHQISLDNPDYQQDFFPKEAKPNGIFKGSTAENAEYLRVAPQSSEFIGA
Test: Antiproliferative activity (MTT) against BaF3 cells expressing the target EGFR mutations
Type: cell-based
Conditions: BAF3 EGFR L858R-T790M PURO POOL cells, read-out: IC50, BAF3 EGFR L858R-T790M PURO POOL
Listing of entries alongside the reported GI50.
MEASURED_QUANTITY: GI50

In [3]: df
Out[3]:
                                   compound       measured
0  COc1ccc(NC(=O)/C=C/CN2CCCCC2)cc1Nc1ncc(Cl)c(Nc2ccccc2P(C)(C)=O)n1        < 50 nM
1  C=CC(=O)Nc1cc(Nc2ncc(Cl)c(Nc3ccccc3P(C)(C)=O)n2)c(OC)cc1N1CCC(N2CCN(C)CC2)C1 (stereo not shown)  101 to 250 nM
2  C=CC(=O)Nc1cc(Nc2ncc(Cl)c(Nc3ccccc3P(C)(C)=O)n2)c(OC)cc1OCC1CCCCN1C (stereo not shown)        < 50 nM
3  C=CC(=O)Nc1cc(Nc2ncc(Cl)c(Nc3ccccc3P(C)(C)=O)n2)c(C)cc1OC(COC)CN(C)C (stereo not shown)        < 50 nM
4  C=CC(=O)Nc1cc(Nc2ncc(Cl)c(Nc3ccccc3S(=O)(=O)C(C)C)n2)c(OC)cc1C#CCN(C)C        < 50 nM
5  C=CC(=O)Nc1cc(Nc2ncc(Cl)c(Nc3ccccc3P(C)(C)=O)n2)c(OC)cc1CN1CCN(C)CC1   50 to 100 nM
6  C=CC(=O)Nc1cc(Nc2ncc(Cl)c(Nc3ccccc3P(C)(C)=O)n2)c(OC)cc1N1CCC(N2CCCC2)CC1  101 to 250 nM

* * *

Molecular target: BaF3 cells expressing the target EGFR mutations (Homo sapiens, UniProt P00533, T790M, cells depend on it, form not given)
Construct: IC50, BAF3 EGFR DEL T790M PURO POOL; other: BAF3 EGFR DEL T790M PURO POOL cells, MTT; other: BAF3 EGFR DEL T790M PURO POOL cells; MTT
Sequence (P00533 with tags, fused parts or gaps DEL746-750/T790M, form open): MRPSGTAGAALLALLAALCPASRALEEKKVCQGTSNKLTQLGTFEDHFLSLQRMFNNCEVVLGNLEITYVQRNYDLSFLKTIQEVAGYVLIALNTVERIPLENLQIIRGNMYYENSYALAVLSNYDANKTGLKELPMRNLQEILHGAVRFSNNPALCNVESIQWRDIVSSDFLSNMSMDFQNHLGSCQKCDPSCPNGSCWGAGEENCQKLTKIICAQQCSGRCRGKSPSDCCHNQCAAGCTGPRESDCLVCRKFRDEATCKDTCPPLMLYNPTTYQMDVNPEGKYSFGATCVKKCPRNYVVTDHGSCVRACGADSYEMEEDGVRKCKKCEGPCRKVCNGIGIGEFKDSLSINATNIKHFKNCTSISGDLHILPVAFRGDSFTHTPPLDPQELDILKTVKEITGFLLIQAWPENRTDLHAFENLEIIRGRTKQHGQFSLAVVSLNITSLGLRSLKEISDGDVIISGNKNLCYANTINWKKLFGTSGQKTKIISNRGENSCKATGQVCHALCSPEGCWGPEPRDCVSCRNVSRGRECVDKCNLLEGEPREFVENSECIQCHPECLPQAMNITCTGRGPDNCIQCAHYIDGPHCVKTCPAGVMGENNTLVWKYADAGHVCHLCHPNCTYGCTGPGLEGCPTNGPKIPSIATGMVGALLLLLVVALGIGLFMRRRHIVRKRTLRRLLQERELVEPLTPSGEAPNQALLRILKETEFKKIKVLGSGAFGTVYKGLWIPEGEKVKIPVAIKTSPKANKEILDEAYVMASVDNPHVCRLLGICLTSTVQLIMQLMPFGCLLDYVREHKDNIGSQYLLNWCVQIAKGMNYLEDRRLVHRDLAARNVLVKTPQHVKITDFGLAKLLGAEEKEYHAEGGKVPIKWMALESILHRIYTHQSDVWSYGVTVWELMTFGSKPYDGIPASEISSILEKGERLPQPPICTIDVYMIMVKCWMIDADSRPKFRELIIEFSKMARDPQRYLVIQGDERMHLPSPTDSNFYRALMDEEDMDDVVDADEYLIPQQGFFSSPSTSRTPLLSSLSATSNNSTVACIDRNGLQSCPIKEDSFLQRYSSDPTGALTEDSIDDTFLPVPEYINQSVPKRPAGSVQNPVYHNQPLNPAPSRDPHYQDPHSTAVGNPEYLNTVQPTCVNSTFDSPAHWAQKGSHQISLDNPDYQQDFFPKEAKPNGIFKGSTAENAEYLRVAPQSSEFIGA
Test: Antiproliferative activity (MTT) against BaF3 cells expressing the target EGFR mutations
Format: cell-based
Conditions: BAF3 EGFR DEL T790M PURO POOL cells, read-out: IC50, BAF3 EGFR DEL T790M PURO POOL
MEASURED_QUANTITY: GI50

>>> print(df.to_string())
                                   molecule  measured_quantity       measured
0  COc1cc(F)c(NC(=O)CCl)cc1Nc1ncc(Cl)c(Nc2ccccc2P(C)(C)=O)n1               GI50        < 50 nM
1  C=C(Cl)C(=O)Nc1ccc(OC)c(Nc2ncc(Cl)c(Nc3ccccc3P(C)(C)=O)n2)c1               GI50        < 50 nM
2  COc1cc(N2CCCC2)c(NC(=O)C#CCCN2CCN(C)CC2)cc1Nc1ncc(Cl)c(Nc2ccccc2P(C)(C)=O)n1               GI50  101 to 250 nM
3  CC#CC(=O)Nc1cc(Nc2ncc(Cl)c(Nc3ccccc3P(C)(C)=O)n2)c(OC)cc1OCCN1CCCC1               GI50        < 50 nM
4  C=C(CN1CCS(=O)(=O)CC1)C(=O)Nc1ccc(OC)c(Nc2ncc(Cl)c(Nc3ccccc3P(C)(C)=O)n2)c1               GI50       ≥ 250 nM
5  C=CC(=O)Nc1cc(Nc2ncc(Cl)c(Nc3ccccc3P(C)(C)=O)n2)c(Cl)cc1OC(COC)CN(C)C (stereo not shown) [Example 145]               GI50        < 50 nM
6  COCC#CC(=O)Nc1ccc(OC)c(Nc2ncc(Cl)c(Nc3ccccc3P(C)(C)=O)n2)c1               GI50        < 50 nM

* * *

Biological target: BaF3 cells expressing the target EGFR mutations (Homo sapiens, UniProt P00533, T790M/L858R, cells depend on it)
Construct: IC50, BAF3 EGFR L858R-T790M PURO POOL; other: BAF3 EGFR L858R-T790M PURO POOL cells, MTT; IC50, BAF3 EGFR L858R-T790M PURO POOL; other: BAF3 EGFR L858R-T790M PURO POOL cells; MTT
Test: Antiproliferative activity (MTT) against BaF3 cells expressing the target EGFR mutations
Type: cell-based
Conditions: BAF3 EGFR L858R-T790M PURO POOL cells, read-out: IC50, BAF3 EGFR L858R-T790M PURO POOL
compounds and their reported GI50
MEASURED_QUANTITY: GI50

In [3]: df
Out[3]:
                                    compound  measured_quantity       measured
 0  COc1cc(F)c(NC(=O)C#CC(C)(C)N2CCCC2)cc1Nc1ncc(Cl)c(Nc2ccccc2P(C)(C)=O)n1 [Example 90]               GI50        < 50 nM
 1  C=CC(=O)Nc1cc(Nc2ncc(Cl)c(Nc3ccccc3P(C)(C)=O)n2)c(OC)cc1N1CC(N2CCCC2)C1 [Example 31]               GI50        < 50 nM
 2  COCCC#CC(=O)Nc1cc(Nc2ncc(Cl)c(Nc3ccccc3P(C)(C)=O)n2)c(OC)cc1N1CCOCC1 [Example 115]               GI50        < 50 nM
 3  COc1cc(C)c(NC(=O)CCl)cc1Nc1ncc(Cl)c(Nc2ccccc2P(C)(C)=O)n1 [Example 140]               GI50        < 50 nM
 4  CNC(=O)/C=C\C(=O)Nc1ccc(OC)c(Nc2ncc(Cl)c(Nc3ccccc3P(C)(C)=O)n2)c1 [Example 110]               GI50  101 to 250 nM
 5  COc1ccc(NC(=O)C2=CCCN(C)C2)cc1Nc1ncc(Cl)c(Nc2ccccc2P(C)(C)=O)n1 [Example 84]               GI50       ≥ 250 nM
 6  C=C(Cl)C(=O)Nc1ccc(OC)c(Nc2ncc(Cl)c(Nc3ccccc3P(C)(C)=O)n2)c1 [Example 132]               GI50  101 to 250 nM
 7  C=CC(=O)Nc1cc(Nc2ncc(Cl)c(Nc3ccccc3P(C)(C)=O)n2)c(OC)cc1OCC1CCOCC1 [Example 6]               GI50  101 to 250 nM
 8  C=CC(=O)Nc1cc(Nc2ncc(Cl)c(Nc3ccccc3P(C)(C)=O)n2)c(OC)cc1N1CCC(N2CCC2)C1 (stereo not drawn) [Example 68]               GI50        < 50 nM
 9  CCOC(=O)/C=C/C(=O)Nc1ccc(OC)c(Nc2ncc(Cl)c(Nc3ccccc3P(C)(C)=O)n2)c1 [Example 75]               GI50        < 50 nM
10  C=CC(=O)Nc1cc(Nc2ncc(Cl)c(Nc3ccccc3P(C)(C)=O)n2)c(OC)cc1C#CCN(CC)CC [Example 96]               GI50        < 50 nM
11  COc1cc(N2CCOCC2)c(NC(=O)C#CCCN2CCN(C)CC2)cc1Nc1ncc(Cl)c(Nc2ccccc2P(C)(C)=O)n1 [Example 118]               GI50        < 50 nM
12  COc1cc(N2CCOCC2)c(NC(=O)C#CCCN2CCCCC2)cc1Nc1ncc(Cl)c(Nc2ccccc2P(C)(C)=O)n1 [Example 101]               GI50        < 50 nM
13  COc1ccc(NC(=O)C#Cc2ccccc2)cc1Nc1ncc(Cl)c(Nc2ccccc2P(C)(C)=O)n1 [Example 93]               GI50        < 50 nM
14  COc1cc(F)c(NC(=O)/C=C/Cl)cc1Nc1ncc(Cl)c(Nc2ccccc2P(C)(C)=O)n1 [Example 85]               GI50        < 50 nM
